The reported numbers originate from patent US20250340570A1.

test system: ATXN3 transcripts containing exon 4; experiment: ATXN3 quantitative splicing assay (qPCR, E4E5 transcripts containing exon 4); format: cell-based; conditions: Human neuroblastoma SK-N-MC cells, 24 h treatment, qPCR primers/probe E4E5
pIC50: −log10 of the molar value.
# pIC50 per entry

Any idea what pIC50 came out for Cc1c(C[C@@H](N)CC(F)F)sc2c(NCc3cccs3)snc12 on ATXN3 transcripts containing exon 4?
4.40 to 5.00

====

test system: ATXN3 transcripts containing exon 4; experiment: ATXN3 quantitative splicing assay (qPCR, E4E5 transcripts containing exon 4); assay type: cell-based; settings: Human neuroblastoma SK-N-MC cells, 24 h treatment, qPCR primers/probe E4E5
The reader will find reported IC50 values listed item by item below.

| structureAsSmiles | IC50 |
| --- | --- |
| FC(F)(F)c1csc2c(NCc3cccs3)snc12 | 10 to 40 µM |
| N[C@@H](CF)Cc1sc2c(NCc3ccco3)snc2c1Cl | 0.101 to 0.5 µM |
| C[C@H](N)Cc1sc2c(NCc3ccco3)snc2c1C1CC1 | 5 to 10 µM |

Quick one: IC50 of C[C@H](N)Cc1sc2c(NCc3nccs3)snc2c1Cl ?
0.101 to 0.5 µM

Fill in the blank: the reported IC50 of C[C@H](N)C(F)(F)c1sc2c(NCc3ccco3)snc2c1Cl is ____.
0.501 to 5 µM

Requested read-out: IC50. Entry: Cc1csc2c(NCc3ccco3)snc12
10 to 40 µM
